Assay: in vivo
Conditions: female, Beagle, dog, brain (thalamus), po, 300 mg/kg
parameter measured: concentration at 24 h (nM)

{"columns": ["smiles", "measurement"],
 "data": [
  ["C=C(C)c1ccc(CC(=O)N[C@H](C)c2ccc(OCC(F)(F)F)cn2)cc1", 772]
]}

###

Assay: 4-week oral toxicology in rats (with FOB)
Conditions: both, Sprague-Dawley, rat, in vivo, po

{"columns": ["compound", "NOAEL at 4 weeks, mg/kg"],
 "data": [
  ["CC(C)c1ccc(CC(=O)N[C@H](C)c2ccc(OCC(F)(F)F)cn2)cc1 [CX-8998]", 30]
]}

###

Experiment: in vivo
Conditions: male, rat, po, 15 mg/kg

{"columns": ["compound", "AUC [µM·h]"],
 "data": [
  ["CC(C(=O)O)c1ccc(CC(=O)N[C@H](C)c2ccc(OCC(F)(F)F)cn2)cc1 (stereo partly shown) [M03]", 34.9],
  ["CC(CO)c1ccc(CC(=O)N[C@H](C)c2ccc(OCC(F)(F)F)cn2)cc1 (stereo partly shown) [M04]", 2.47],
  ["C=C(C)c1ccc(CC(=O)N[C@H](C)c2ccc(OCC(F)(F)F)cn2)cc1 [M01]", 11.3],
  ["C[C@@H](NC(=O)Cc1ccc(C(C)(C)O)cc1)c1ccc(OCC(F)(F)F)cn1 [M02]", 26.1]
]}

###

Assay: 90-day oral toxicology in Beagle dogs
Details: male, Beagle, dog, in vivo, po, 100 mg/kg/day
The compounds listed here are annotated with their AUC.

{"columns": ["compound", "unit name", "AUC"],
 "data": [
  ["CC(CO)c1ccc(CC(=O)N[C@H](C)c2ccc(OCC(F)(F)F)cn2)cc1 (stereo partly shown)", "µM·h", 33.9],
  ["CC(C(=O)O)c1ccc(CC(=O)N[C@H](C)c2ccc(OCC(F)(F)F)cn2)cc1 (stereo partly shown)", "µM·h", 79.6],
  ["C[C@@H](NC(=O)Cc1ccc(C(C)(C)O)cc1)c1ccc(OCC(F)(F)F)cn1", "µM·h", 1800],
  ["C=C(C)c1ccc(CC(=O)N[C@H](C)c2ccc(OCC(F)(F)F)cn2)cc1", "µM·h", 1770]
]}

###

Test: Phase 1 single-dose pharmacokinetics (PN001, PN002/Part I, PN003, PN005)
Assay type: in vivo, human
Conditions: male, human, plasma, oral, Average of studies, dose 16, 1 dose; read-out: Cmax

{"columns": ["smiles", "Cmax"],
 "data": [
  ["CC(C)c1ccc(CC(=O)N[C@H](C)c2ccc(OCC(F)(F)F)cn2)cc1", "1060 nM"]
]}

###

Experiment: Cardiovascular telemetry in conscious dogs, oral
Settings: dog, plasma, po, 20 mg/kg

{"columns": ["compound", "Cmax"],
 "data": [
  ["CC(C)c1ccc(CC(=O)N[C@H](C)c2ccc(OCC(F)(F)F)cn2)cc1 [CX-8998]", "~30 µM"]
]}

###

Assay: Phase 1 single-dose pharmacokinetics (PN001, PN002/Part I, PN003, PN005)
Format: in vivo, human
Conditions: male, human, plasma, oral, 1 mg, fed (high-fat meal); read-out: Cmax, mean

{"columns": ["smiles", "Cmax [nM]"],
 "data": [
  ["CC(C)c1ccc(CC(=O)N[C@H](C)c2ccc(OCC(F)(F)F)cn2)cc1", 56]
]}

###

Measured half-life, listed per entry for reference.
Experiment: Phase 1 multiple-dose pharmacokinetics (PN002/Part II)
Conditions: human, plasma, 18 mg

{"columns": ["molecule", "unit name", "half-life"],
 "data": [
  ["C[C@@H](NC(=O)Cc1ccc(C(C)(C)O)cc1)c1ccc(OCC(F)(F)F)cn1 [M02]", "h", 12.8],
  ["C=C(C)c1ccc(CC(=O)N[C@H](C)c2ccc(OCC(F)(F)F)cn2)cc1 [M01]", "h", 19]
]}

###

Test: in vivo
Settings: male, Beagle, dog, brain (thalamus), po, 300 mg/kg
parameter measured: concentration at 24 h (µM)

{"columns": ["smiles", "measurement"],
 "data": [
  ["C=C(C)c1ccc(CC(=O)N[C@H](C)c2ccc(OCC(F)(F)F)cn2)cc1", 0.208]
]}

###

Assay: in vivo
Conditions: female, Beagle, dog, in vivo, po, 300 mg/kg/day
parameter measured: AUC (µM·h)

{"columns": ["smiles", "unit name", "measurement"],
 "data": [
  ["CC(C)c1ccc(CC(=O)N[C@H](C)c2ccc(OCC(F)(F)F)cn2)cc1", "µM·h", 2080]
]}

###

Test: in vivo
Details: male, rat, po, 300 mg/kg/day
parameter measured: half-life (h)

{"columns": ["smiles", "unit name", "measurement"],
 "data": [
  ["CC(C)c1ccc(CC(=O)N[C@H](C)c2ccc(OCC(F)(F)F)cn2)cc1", "h", 5.68]
]}

###

Assay: 90-day oral toxicology in Beagle dogs
Conditions: male, Beagle, dog, in vivo, po, 30 mg/kg/day
parameter measured: AUC (µM·h)

{"columns": ["smiles", "parameter measured", "unit name", "measurement"],
 "data": [
  ["CC(C)c1ccc(CC(=O)N[C@H](C)c2ccc(OCC(F)(F)F)cn2)cc1", "AUC", "µM·h", 335]
]}

###

IC50 overview
Biological target: Cav3.3 (Homo sapiens, UniProt Q9P0X4)
Construct: expressed in transfected cells; host or cells: HEK 293
Sequence (Q9P0X4 whole entry, species assumed): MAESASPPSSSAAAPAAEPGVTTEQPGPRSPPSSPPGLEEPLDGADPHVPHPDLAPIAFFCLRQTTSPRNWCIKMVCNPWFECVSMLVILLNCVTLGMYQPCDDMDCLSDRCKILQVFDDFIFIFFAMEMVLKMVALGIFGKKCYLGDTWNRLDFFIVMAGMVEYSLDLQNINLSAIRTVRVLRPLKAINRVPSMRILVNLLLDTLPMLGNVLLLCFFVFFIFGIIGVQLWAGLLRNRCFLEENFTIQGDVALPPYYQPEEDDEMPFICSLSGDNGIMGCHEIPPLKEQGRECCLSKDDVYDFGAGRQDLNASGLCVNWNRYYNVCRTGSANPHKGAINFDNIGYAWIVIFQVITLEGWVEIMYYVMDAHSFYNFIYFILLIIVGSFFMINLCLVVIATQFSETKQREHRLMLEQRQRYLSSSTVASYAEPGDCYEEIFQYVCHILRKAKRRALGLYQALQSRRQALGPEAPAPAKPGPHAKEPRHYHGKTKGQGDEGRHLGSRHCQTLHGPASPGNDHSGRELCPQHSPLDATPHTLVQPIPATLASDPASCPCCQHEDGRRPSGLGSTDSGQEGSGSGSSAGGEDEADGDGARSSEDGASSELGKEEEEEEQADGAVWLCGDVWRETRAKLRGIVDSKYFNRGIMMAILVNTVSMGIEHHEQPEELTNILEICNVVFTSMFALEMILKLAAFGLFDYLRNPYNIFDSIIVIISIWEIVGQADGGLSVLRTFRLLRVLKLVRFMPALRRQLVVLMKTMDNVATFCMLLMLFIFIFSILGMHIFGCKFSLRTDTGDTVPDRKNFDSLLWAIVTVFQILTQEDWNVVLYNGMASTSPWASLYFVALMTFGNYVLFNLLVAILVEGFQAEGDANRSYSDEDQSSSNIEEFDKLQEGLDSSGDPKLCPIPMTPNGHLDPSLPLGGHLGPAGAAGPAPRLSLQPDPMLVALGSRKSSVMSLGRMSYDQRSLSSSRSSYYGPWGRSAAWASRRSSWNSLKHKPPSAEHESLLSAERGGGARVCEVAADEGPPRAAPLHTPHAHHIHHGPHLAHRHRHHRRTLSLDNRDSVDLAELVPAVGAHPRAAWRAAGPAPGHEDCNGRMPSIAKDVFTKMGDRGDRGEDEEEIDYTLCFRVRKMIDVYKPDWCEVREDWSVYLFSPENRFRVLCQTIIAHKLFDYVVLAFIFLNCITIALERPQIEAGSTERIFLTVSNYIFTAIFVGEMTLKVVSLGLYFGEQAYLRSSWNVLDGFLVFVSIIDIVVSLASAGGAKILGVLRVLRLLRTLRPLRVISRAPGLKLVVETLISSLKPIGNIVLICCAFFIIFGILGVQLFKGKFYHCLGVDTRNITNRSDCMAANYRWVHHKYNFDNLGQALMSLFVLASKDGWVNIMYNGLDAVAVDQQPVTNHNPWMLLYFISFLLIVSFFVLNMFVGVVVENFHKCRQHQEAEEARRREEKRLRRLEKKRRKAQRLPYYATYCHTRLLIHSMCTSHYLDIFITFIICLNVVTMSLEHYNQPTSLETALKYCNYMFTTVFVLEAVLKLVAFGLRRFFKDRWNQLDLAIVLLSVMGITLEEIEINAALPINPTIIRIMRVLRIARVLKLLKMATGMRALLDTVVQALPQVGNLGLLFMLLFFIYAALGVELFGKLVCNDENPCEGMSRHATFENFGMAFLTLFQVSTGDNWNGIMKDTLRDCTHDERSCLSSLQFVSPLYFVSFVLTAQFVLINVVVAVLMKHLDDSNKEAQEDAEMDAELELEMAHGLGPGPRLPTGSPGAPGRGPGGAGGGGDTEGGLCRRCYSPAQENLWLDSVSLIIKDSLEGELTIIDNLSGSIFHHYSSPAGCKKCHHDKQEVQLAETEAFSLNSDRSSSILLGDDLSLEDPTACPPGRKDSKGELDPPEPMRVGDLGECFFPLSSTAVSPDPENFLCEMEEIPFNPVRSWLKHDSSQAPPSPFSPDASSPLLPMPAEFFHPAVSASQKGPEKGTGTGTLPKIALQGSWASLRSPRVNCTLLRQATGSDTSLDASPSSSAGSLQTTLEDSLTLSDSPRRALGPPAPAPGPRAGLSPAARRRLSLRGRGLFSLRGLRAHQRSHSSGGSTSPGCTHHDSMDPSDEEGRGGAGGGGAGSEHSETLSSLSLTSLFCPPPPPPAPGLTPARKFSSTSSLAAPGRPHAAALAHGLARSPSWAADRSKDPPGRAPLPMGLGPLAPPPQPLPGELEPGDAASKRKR
Test: Cav3.3 FLIPR calcium influx assay (HEK 293 cells)
Type: cell-based
Conditions: Cav3.3 FLIPR assay, hyperpolarized; read-out: Hyperpolarized FLIPR potency
parameter measured: IC50 (nM)

{"columns": ["molecule", "target", "unit name", "measurement"],
 "data": [
  ["C[C@@H](NC(=O)Cc1ccc(C(C)(C)O)cc1)c1ccc(OCC(F)(F)F)cn1 [M02]", "Cav3.3 (Homo sapiens, UniProt Q9P0X4)", "nM", 2840],
  ["CC(C(=O)O)c1ccc(CC(=O)N[C@H](C)c2ccc(OCC(F)(F)F)cn2)cc1 (stereo partly shown) [M03]", "Cav3.3 (Homo sapiens, UniProt Q9P0X4)", "nM", 3320],
  ["CC(CO)c1ccc(CC(=O)N[C@H](C)c2ccc(OCC(F)(F)F)cn2)cc1 (stereo partly shown) [M04]", "Cav3.3 (Homo sapiens, UniProt Q9P0X4)", "nM", 1810],
  ["C=C(C)c1ccc(CC(=O)N[C@H](C)c2ccc(OCC(F)(F)F)cn2)cc1 [M01]", "Cav3.3 (Homo sapiens, UniProt Q9P0X4)", "nM", 86]
]}

###

Experiment: Phase 1 multiple-dose pharmacokinetics (PN002/Part II)
Settings: human, plasma, 12 mg, AUC24, M02, Day 7, CX-8998 12 mg once daily

{"columns": ["smiles", "AUC [µM·h]"],
 "data": [
  ["C[C@@H](NC(=O)Cc1ccc(C(C)(C)O)cc1)c1ccc(OCC(F)(F)F)cn1", 4.55]
]}

###

Assay: In vitro plasma protein binding, human
Type: in vitro ADME
Conditions: human plasma, read-out: Human-free fraction
Recorded fraction unbound, one value per entry.
parameter measured: fraction unbound

{"columns": ["molecule", "reading qualifier", "measurement"],
 "data": [
  ["CC(CO)c1ccc(CC(=O)N[C@H](C)c2ccc(OCC(F)(F)F)cn2)cc1 (stereo partly shown)", "=", 0.13],
  ["CC(C)c1ccc(CC(=O)N[C@H](C)c2ccc(OCC(F)(F)F)cn2)cc1", "=", 0.004],
  ["CC(C(=O)O)c1ccc(CC(=O)N[C@H](C)c2ccc(OCC(F)(F)F)cn2)cc1 (stereo partly shown)", "=", 0.21],
  ["C=C(C)c1ccc(CC(=O)N[C@H](C)c2ccc(OCC(F)(F)F)cn2)cc1", "<", 0.001]
]}

###

Experiment: in vivo
Settings: male, Beagle, dog, CSF, po, 300 mg/kg
parameter measured: Kp at 24 h

{"columns": ["smiles", "measurement"],
 "data": [
  ["C=C(C)c1ccc(CC(=O)N[C@H](C)c2ccc(OCC(F)(F)F)cn2)cc1", 0.149]
]}

###

Assay: T-CALM: plasma concentrations by 5-in-1 LC/MS/MS
Type: in vivo, human
Details: Visit 2 (Day 8), 4 mg BID, trough
parameter measured: Plasma concentration, mean (nM)

{"columns": ["compound", "parameter measured", "unit name", "measurement"],
 "data": [
  ["C=C(C)c1ccc(CC(=O)N[C@H](C)c2ccc(OCC(F)(F)F)cn2)cc1", "Plasma concentration, mean", "nM", 398],
  ["CC(CO)c1ccc(CC(=O)N[C@H](C)c2ccc(OCC(F)(F)F)cn2)cc1 (stereo partly shown)", "Plasma concentration, mean", "nM", 4.5],
  ["C[C@@H](NC(=O)Cc1ccc(C(C)(C)O)cc1)c1ccc(OCC(F)(F)F)cn1", "Plasma concentration, mean", "nM", 168],
  ["CC(C(=O)O)c1ccc(CC(=O)N[C@H](C)c2ccc(OCC(F)(F)F)cn2)cc1 (stereo partly shown)", "Plasma concentration, mean", "nM", 11]
]}

All figures here come from patent US11311522B1.
